Where do these numbers come from? They come from paper PMC9316317.

- ASSAY SUMMARY: Ex vivo biodistribution in Daudi xenograft-bearing mice
- REPORTED CONDITIONS: male, NOD.Cg-Rag1tm1Mom Il2rgtm1Wjl/SzJ (NRG), mouse, testes, iv, total radioactivity, Testes uptake, 2 h p.i., mean
Where a SMILES comes first, the peptide text is derived from it. Side-chain parts run from the residue outwards. [ ]: non-standard residue; d: D form. The star is where a group is joined. DOTA = O=C(O)CN1CCN(CC(=O)O)CCN(CC(=O)*)CCN(CC(=O)O)CC1; 2Nal = N[C@@H](Cc1ccc2ccccc2c1)C(=O)O; dNMeOrn = CN[C@H](CCCN)C(=O)O; 4Amb = NCc1ccc(C(=O)O)cc1

- COMPOUND: "CN1C(=O)[C@@H](Cc2ccc(O)cc2)NC(=O)CNC(=O)[C@H](Cc2ccc3ccccc3c2)NC(=O)[C@H](CCCNC(=N)N)NC(=O)[C@H]1CCCNC(=O)c1ccc(CNC(=O)CN2CCN(CC(=O)O)CCN(CC(=O)O)CCN(CC(=O)O)CC2)cc1 [[68Ga]Ga-Pentixafor, metal not drawn] (cyclo([dY][dNMeOrn]([4Amb-DOTA])R[2Nal]G))"
  tissue uptake at 2 h [%ID/g]: 0.13
